# study_target: Gamma-aminobutyric acid receptor subunit alpha-6/beta-3/gamma-2 (Rattus norvegicus, UniProt P18508+P30191+P63079)
# Sequence (P18508 whole entry): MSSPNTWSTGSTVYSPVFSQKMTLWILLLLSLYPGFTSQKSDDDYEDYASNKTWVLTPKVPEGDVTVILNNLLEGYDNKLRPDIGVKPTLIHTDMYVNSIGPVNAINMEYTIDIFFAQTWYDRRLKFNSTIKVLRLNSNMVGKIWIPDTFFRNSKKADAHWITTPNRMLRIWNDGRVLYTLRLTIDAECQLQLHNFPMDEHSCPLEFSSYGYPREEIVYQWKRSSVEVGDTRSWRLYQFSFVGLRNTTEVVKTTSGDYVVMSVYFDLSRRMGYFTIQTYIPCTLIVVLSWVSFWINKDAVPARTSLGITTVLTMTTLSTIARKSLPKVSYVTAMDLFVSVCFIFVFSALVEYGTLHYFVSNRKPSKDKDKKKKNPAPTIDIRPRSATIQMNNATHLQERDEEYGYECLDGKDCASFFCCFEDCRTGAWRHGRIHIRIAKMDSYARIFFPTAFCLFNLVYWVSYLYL
# Sequence (P30191 whole entry): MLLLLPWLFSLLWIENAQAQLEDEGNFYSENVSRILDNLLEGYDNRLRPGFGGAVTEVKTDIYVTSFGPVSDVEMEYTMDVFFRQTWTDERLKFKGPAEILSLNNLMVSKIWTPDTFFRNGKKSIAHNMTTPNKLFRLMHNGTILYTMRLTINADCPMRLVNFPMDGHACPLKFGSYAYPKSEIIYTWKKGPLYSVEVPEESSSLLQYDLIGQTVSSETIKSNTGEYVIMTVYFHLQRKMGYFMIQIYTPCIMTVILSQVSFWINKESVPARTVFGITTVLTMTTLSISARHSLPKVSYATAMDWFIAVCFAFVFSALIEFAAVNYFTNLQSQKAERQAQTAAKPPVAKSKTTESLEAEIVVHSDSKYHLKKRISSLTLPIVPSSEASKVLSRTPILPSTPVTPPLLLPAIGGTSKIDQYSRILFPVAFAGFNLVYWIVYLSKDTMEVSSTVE
# Sequence (P63079 whole entry): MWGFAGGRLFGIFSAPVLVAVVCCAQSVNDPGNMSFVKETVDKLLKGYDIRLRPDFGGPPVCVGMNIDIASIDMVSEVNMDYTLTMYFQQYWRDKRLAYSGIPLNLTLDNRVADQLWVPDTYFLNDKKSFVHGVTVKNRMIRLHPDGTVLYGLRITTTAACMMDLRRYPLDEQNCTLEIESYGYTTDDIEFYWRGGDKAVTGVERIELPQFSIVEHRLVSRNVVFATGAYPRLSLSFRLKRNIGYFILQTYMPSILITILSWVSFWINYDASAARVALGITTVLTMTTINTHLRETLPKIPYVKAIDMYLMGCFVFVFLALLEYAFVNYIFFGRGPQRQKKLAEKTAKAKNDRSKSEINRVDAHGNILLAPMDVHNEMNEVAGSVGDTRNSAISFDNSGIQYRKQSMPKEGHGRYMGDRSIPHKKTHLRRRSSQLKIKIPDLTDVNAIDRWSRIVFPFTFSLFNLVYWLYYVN
# experiment_description: Modulation of rat alpha6beta3gamma2 GABA A receptor expressed in Xenopus oocytes assessed as reduction in desensitization at -80 mV holding potential by two-electrode voltage-clamp assay
Catalogue of compounds with associated EC50

compound	value_units	EC50
Cl/C(=C\n1cncn1)c1ccc(Cl)cc1Cl	µM	38
Cc1ccc(C(C)(C)CC#N)c(Cl)c1	µM	28
Cc1ccc(C(C)CC#N)c(Cl)c1 (racemic)	µM	38

Values compiled from ChEMBL document CHEMBL5247619.
